Assay: RP, Waters ACQUITY UPLC BEH C18, 100 × 2.1 mm, 1.7 µm, 0.3 mL/min, estimated dead time 0.73 min; A: water + 0.1% formic acid, pH 3; B: methanol + 0.1% formic acid, pH 3; gradient (min/%B) 0/10 14/90 16/90 18/10
Conditions: stereoisomer not certain
Counter-ions that a name gives are not always drawn.

# Compound, Measure Unit, LC retention time
rows = [
    ("CNc1nc(NC(C)C)nc(SC)n1", "min", 8.78),
    ("CNC(=O)Oc1cccc2ccccc12", "min", 7.91),
    ("COCC1OC(=O)c2coc3c2C1(C)C1=C(C3=O)C2CCC(=O)C2(C)CC1OC(C)=O (stereo not given)", "min", 7.75),
    ("COc1cc(OC)c(C(=O)CCCN2CCCC2)c(OC)c1 [Buflomedil HCl]", "min", 5),
    ("COP(=O)(OC)SCn1c(=O)oc2cc(Cl)cnc21", "min", 7.22),
]

###

Test: RP, Waters ACQUITY UPLC BEH C18, 100 × 2.1 mm, 1.7 µm, 0.3 mL/min, estimated dead time 0.73 min; A: water + 0.1% formic acid, pH 3; B: methanol + 0.1% formic acid, pH 3; gradient (min/%B) 0/10 14/90 16/90 18/10
Conditions: stereoisomer not certain
Measurement Name: LC retention time (min)

# Compound, Measurement Name, Meas Value
records = [
    ("CC(C)Nc1nc(Cl)nc(NC(C)C)n1", "LC retention time", 9.88),
    ("CC1(C)SC2C(NC(=O)C(N)c3ccc(O)cc3)C(=O)N2C1C(=O)O (stereo not drawn)", "LC retention time", 4.61),
    ("CCOC(=O)C(C)Oc1ccc(Oc2nc3ccc(Cl)cc3o2)cc1 (stereo not drawn)", "LC retention time", 12.7),
    ("CCS(=O)(=O)c1nc2ccccn2c1S(=O)(=O)NC(=O)Nc1nc(OC)cc(OC)n1", "LC retention time", 6.42),
    ("CCCCC(C)C(OC(=O)CC(CC(=O)O)C(=O)O)C(CC(C)CCCCCCC(O)CC(O)C(C)N)OC(=O)CC(CC(=O)O)C(=O)O (stereo not drawn)", "LC retention time", 11),
    ("COc1ccc2nc(S(=O)Cc3ncc(C)c(OC)c3C)[nH]c2c1 (stereo not drawn)", "LC retention time", 7.14),
    ("Cc1nc(N(C)C)nc(OC(=O)N(C)C)c1C", "LC retention time", 5.67),
    ("CCCC1CC(C(=O)NC(C(C)Cl)C2OC(SC)C(O)C(O)C2O)N(C)C1 (stereo not drawn)", "LC retention time", 7.04),
    ("CCCOC(=O)c1ccccc1C(=O)OCCC [Dipropyl phthalate]", "LC retention time", 11.1),
    ("O=C(Nc1ccccc1-c1ccc(Cl)cc1)c1cccnc1Cl", "LC retention time", 10.7),
    ("CCCN(CC)CC1COC2(CCC(C(C)(C)C)CC2)O1 (stereo not drawn)", "LC retention time", 10),
    ("CCCC1COC(Cn2cncn2)(c2ccc(Cl)cc2Cl)O1 (stereo not drawn)", "LC retention time", 12.5),
    ("CCC1(C2OC(C3OC(O)(CO)C(C)CC3C)CC2C)CCC(C2(C)CCC3(CC(O)C(C)C(C(C)C(OC)C(C)C(=O)O)O3)O2)O1 (stereo not drawn)", "LC retention time", 15.3),
    ("CNC(=O)ON=CC(C)(C)S(C)=O (stereo not drawn) [Aldicarb sulfoxide]", "LC retention time", 2.54),
    ("CN1COCN(Cc2cnc(Cl)s2)C1=N[N+](=O)[O-]", "LC retention time", 3.27),
    ("CNC(=O)Oc1cccc(N=CN(C)C)c1 [Formetanate]", "LC retention time", 2.06),
    ("CNC(=O)Oc1cccc2c1OC(C)(C)O2", "LC retention time", 7.43),
    ("O=C(O)c1cn(-c2ccc(F)cc2)c2cc(N3CCNCC3)c(F)cc2c1=O", "LC retention time", 5.12),
]

###

Test: RP, Waters ACQUITY UPLC BEH C18, 100 × 2.1 mm, 1.7 µm, 0.3 mL/min, estimated dead time 0.73 min; A: water + 0.1% formic acid, pH 3; B: methanol + 0.1% formic acid, pH 3; gradient (min/%B) 0/10 14/90 16/90 18/10
Details: stereoisomer not certain
LC retention time for assorted molecules

# Molecule, LC retention time, min
measured = [
    ("CN(C(=O)COc1nc2ccccc2s1)c1ccccc1", 10.7),
    ("COc1cc2c(c3c1C1CCC(=O)C1C(=O)O3)C1CCOC1O2 (centres undefined)", 7.55),
    ("CCCOP(=S)(OCCC)SCC(=O)N1CCCCC1C (centres undefined)", 12.3),
    ("CCCN(CCC)c1c([N+](=O)[O-])cc(S(N)(=O)=O)cc1[N+](=O)[O-]", 11.1),
    ("Cc1ncc([N+](=O)[O-])n1CCO", 5.38),
    ("COC(=O)C(C)N(C(=O)c1ccco1)c1c(C)cccc1C (centres undefined)", 10),
    ("Cc1ccc(N(SC(F)(Cl)Cl)S(=O)(=O)N(C)C)cc1", 12.4),
    ("CCOC(=O)C1CC(=O)C(=C(O)C2CC2)C(=O)C1 (centres undefined)", 7.6),
    ("CCN(CC)C(=O)SCc1ccc(Cl)cc1", 12.9),
    ("CCOc1cc(OP(=S)(OC)OC)nc(CC)n1", 11.6),
    ("CC(C)(C)C(O)C(Cc1ccc(Cl)cc1)n1cncn1 (centres undefined)", 10.8),
    ("Cc1[nH]c(=O)n(C(C)(C)C)c(=O)c1Cl", 7.42),
    ("O=C(CCCN1CCN(c2ccccn2)CC1)c1ccc(F)cc1", 5.63),
    ("O=C(NC(=O)c1c(F)cccc1F)Nc1cc(Cl)c(Oc2ncc(C(F)(F)F)cc2Cl)c(Cl)c1", 13.9),
    ("CC(Cc1ccc(C(C)(C)C)cc1)CN1CCCCC1 (centres undefined)", 10),
    ("CN(C)C1C(=O)C(C(N)=O)=C(O)C2(O)C(=O)C3=C(O)c4c(O)cccc4C(C)(O)C3CC12 (centres undefined)", 4.37),
    ("CCS(=O)(=O)c1cccnc1S(=O)(=O)NC(=O)Nc1nc(OC)cc(OC)n1", 5.84),
    ("COC(=O)Nc1cccc(OC(=O)Nc2cccc(C)c2)c1", 9.52),
    ("NC(=O)NN=Cc1ccc([N+](=O)[O-])o1", 2.99),
]

###

Recorded LC retention time values for a group of molecules are listed next.
Experiment: RP, Waters ACQUITY UPLC BEH C18, 100 × 2.1 mm, 1.7 µm, 0.3 mL/min, estimated dead time 0.73 min; A: water + 0.1% formic acid, pH 3; B: methanol + 0.1% formic acid, pH 3; gradient (min/%B) 0/10 14/90 16/90 18/10
Conditions: stereoisomer not certain
Measurement Name: LC retention time

# Molecule, Meas Value
measured = [
    ("Cc1cc(NS(=O)(=O)c2ccc(N)cc2)no1 [Sulfamethoxazole]", "3.91 min"),
    ("CC1=C(C(=O)Nc2ccccc2)SCCO1 [Carboxin]", "7.77 min"),
    ("CCOP(=S)(OCC)OP(=S)(OCC)OCC [Sulfotep]", "11.5 min"),
    ("OC(c1ccc(Cl)cc1)(c1cncnc1)c1ccccc1Cl (stereo not given) [Fenarimol]", "11.6 min"),
    ("CCC(C)(C)C(=O)OC1CC(C)C=C2C=CC(C)C(CCC3CC(O)CC(=O)O3)C21 (stereo not given) [Simvastatin]", "14.2 min"),
]

###

Assay: RP, Waters ACQUITY UPLC BEH C18, 100 × 2.1 mm, 1.7 µm, 0.3 mL/min, estimated dead time 0.73 min; A: water + 0.1% formic acid, pH 3; B: methanol + 0.1% formic acid, pH 3; gradient (min/%B) 0/10 14/90 16/90 18/10
Conditions: stereoisomer not certain
Measurement Name: LC retention time (min)

# Compound, Measure Unit, Meas Value
records = [
    ("CCOP(=S)(OCC)Oc1cnc2ccccc2n1", "min", 11.3),
    ("CC(C)N1C(=O)N(c2ccccc2)CSC1=NC(C)(C)C", "min", 13.1),
    ("CCN(CC)C(=O)SCc1ccccc1Cl", "min", 11.9),
    ("CCn1cc(C(=O)O)c(=O)c2ccc(C)nc21", "min", 7.99),
    ("CC1=CC2OC3C(O)CC(C)(C34CO4)C2(CO)C(O)C1=O (stereo not given)", "min", 2.83),
]

###

Test: RP, Waters ACQUITY UPLC BEH C18, 100 × 2.1 mm, 1.7 µm, 0.3 mL/min, estimated dead time 0.73 min; A: water + 0.1% formic acid, pH 3; B: methanol + 0.1% formic acid, pH 3; gradient (min/%B) 0/10 14/90 16/90 18/10
Settings: stereoisomer not certain
Measurement Name: LC retention time (min)

# Compound, Measurement Name, Meas Value
rows = [
    ("CC12CCC3C4CCC(=O)C=C4CCC3C1CCC2O (stereo not given)", "LC retention time", 10.6),
    ("CC1(C)SC2C(NC(=O)C(N)c3ccccc3)C(=O)N2C1C(=O)O (stereo not given)", "LC retention time", 4.95),
    ("CCCCCc1cc(O)c2c(c1)OC(C)(C)C1CC=C(C(=O)O)CC21 (stereo not given)", "LC retention time", 13.9),
    ("Clc1cccc(N2CCNCC2)c1", "LC retention time", 5.23),
    ("COc1cc(OC)nc(NC(=O)NS(=O)(=O)c2ncccc2C(F)(F)F)n1", "LC retention time", 7.14),
    ("CCN(C(=O)SCc1ccccc1)C(C)C(C)C (stereo not given)", "LC retention time", 12.8),
    ("COC(=O)C(C)=COP(=S)(OC)OC", "LC retention time", 9.37),
    ("CCCSC(=O)N(CCC)CCC", "LC retention time", 12.2),
    ("CNC(=O)CSP(=O)(OC)OC [Omethoate]", "LC retention time", 2.5),
    ("CN(C)C1C(=O)C(C(N)=O)=C(O)C2(O)C(=O)C3=C(O)c4c(O)cccc4C(C)(O)C3C(O)C12 (stereo not given)", "LC retention time", 3.94),
    ("CC(C1CC1)C(O)(Cn1cncn1)c1ccc(Cl)cc1 (stereo not given)", "LC retention time", 10.5),
    ("CCS(=O)(=O)Cc1ccccc1OC(=O)NC", "LC retention time", 4.07),
    ("CC1CN(C2CCCCCCCCCCC2)CC(C)O1 (stereo not given)", "LC retention time", 13.4),
    ("COCCN(C(=O)CCl)c1c(C)cccc1C", "LC retention time", 9.39),
    ("Cc1cccc(C)c1NC1=NCCCS1", "LC retention time", 4.92),
    ("COc1ncnc(NS(=O)(=O)c2ccc(N)cc2)c1OC", "LC retention time", 5),
    ("CON=C(C(=O)OC)c1ccccc1COc1ccccc1C", "LC retention time", 11.7),
    ("CNC(=O)Oc1cc(C)c(SC)c(C)c1", "LC retention time", 8.89),
    ("CCOC(=O)CCN(Cc1ccccc1)SN(C)C(=O)ON=C(C)SC", "LC retention time", 11.6),
    ("Nc1ccc(S(=O)(=O)Nc2nccs2)cc1", "LC retention time", 2.26),
]
